Hey, just so you know, these numbers are from ChEMBL document CHEMBL1133284.

- System: Nakaseomyces glabratus
- measurement_protocol: In vitro minimum inhibitory concentration of compound was determined against Candida glabrata after 24 hr r
- Assay type: functional
reported_endpoint: MIC (µM)
Quick reminder: number only, in µM, skip the unit.

Field: example entries. Status: answers known.
| compound | assay_target | reported_endpoint | reported_value |
| --- | --- | --- | --- |
| CC[C@@H]1C=C(c2ccc(C)cc2)C(=O)O1 | Nakaseomyces glabratus | MIC | 500 |
| CC1C=C(c2ccc(Br)cc2)C(=O)O1 (configuration not stated) | Nakaseomyces glabratus | MIC | 500 |
| CC1C=C(c2ccc(F)cc2)C(=O)O1 (configuration not stated) | Nakaseomyces glabratus | MIC | 500 |
| CC(=O)N1CCN(c2ccc(OC[C@H]3CO[C@](Cn4ccnc4)(c4ccc(Cl)cc4Cl)O3)cc2)CC1 [KETOCONAZOLE] | Nakaseomyces glabratus | MIC | 0.24 |
| CC1C=C(c2ccc([N+](=O)[O-])cc2)C(=O)O1 (configuration not stated) | Nakaseomyces glabratus | MIC | 500 |

Q: Could you tell me which MIC is on file for CC1C=C(c2ccc(Cl)cc2)C(=O)O1 (configuration not stated) ?
Result: 500

Q: // next record CC1C=C(c2cccc(Br)c2)C(=O)O1 (configuration not stated)
Result: 250
